Experiment: Single dose PK in patients with narcolepsy (Cohorts 5, 6 and 7), plasma
Type: in vivo, human
Conditions: human, plasma, intravenous, 5 mg, Cmpd A 5 mg; Geo Mean; Cohort 5, 6, 7; read-out: AUC24
EXPERIMENTAL_ENDPOINT: AUC (µg·h/mL)
Field: numeric (µg·h/mL). Do not append units.

[in] Request the reported AUC associated with `COC(=O)N1CCC[C@H](NS(C)(=O)=O)[C@@H]1CO[C@H]1CC[C@@H](c2ccccc2)CC1`
[out] 0.088

====

Test: Single dose PK in patients with narcolepsy (Cohorts 5, 6 and 7), plasma
Assay type: in vivo, human
Details: human, plasma, intravenous, 5 mg, Cmpd A 5 mg; Mean; Cohort 5, 6, 7
Text: […]
EXPERIMENTAL_ENDPOINT: AUC(0-inf) (ng·h/mL)
Express your answer in ng·h/mL, writing the number without its unit.

[in] May I ask what AUC(0-inf) has been recorded for COC(=O)N1CCC[C@H](NS(C)(=O)=O)[C@@H]1CO[C@H]1CC[C@@H](c2ccccc2)CC1 [Compound A] ?
[out] 89.3

====

Assay: Single dose PK in healthy subjects (Cohorts 1, 2, S1 and S2), plasma
Assay type: in vivo, human
Conditions: human, plasma, iv, 112 mg, 112 mg single IV infusion, healthy subjects; read-out: AUCinf Geo Mean
EXPERIMENTAL_ENDPOINT: AUC(0-inf) (ng·h/mL)
Numbers only here, please. The scale is ng·h/mL.

[in] Fill in the blank: the reported AUC(0-inf) of `COC(=O)N1CCC[C@H](NS(C)(=O)=O)[C@@H]1CO[C@H]1CC[C@@H](c2ccccc2)CC1` is ____.
[out] 2090

====

Test: Single dose PK in healthy subjects (Cohorts 1, 2, S1 and S2), plasma
Format: in vivo, human
Settings: human, plasma, intravenous, 240 mg; 3 hr; read-out: Plasma concentration, Mean
EXPERIMENTAL_ENDPOINT: concentration at 3 h
Answer by giving the amount and then stating its unit.

[in] Given `COC(=O)N1CCC[C@H](NS(C)(=O)=O)[C@@H]1CO[C@H]1CC[C@@H](c2ccccc2)CC1` , state its recorded concentration at 3 h.
[out] 456 ng/mL

====

Assay: Single dose PK in patients with narcolepsy (Cohorts 5, 6 and 7), plasma
Format: in vivo, human
Conditions: human, plasma, intravenous, 5 mg, Cmpd A 5 mg; Mean; Cohort 5, 6, 7
EXPERIMENTAL_ENDPOINT: Cmax (ng/mL)
Field format: number, assumed ng/mL, no unit text.

[in] Which Cmax is listed for COC(=O)N1CCC[C@H](NS(C)(=O)=O)[C@@H]1CO[C@H]1CC[C@@H](c2ccccc2)CC1 [Compound A] ?
[out] 10.2

====

Assay: Single dose PK in healthy subjects (Cohorts 1, 2, S1 and S2), plasma
Assay type: in vivo, human
Conditions: human, plasma, intravenous, 112 mg; 8 hr; read-out: Plasma concentration, Q1
EXPERIMENTAL_ENDPOINT: concentration at 8 h (ng/mL)
Report only the number, with the unit ng/mL understood.

[in] Give its concentration at 8 h value. Item: COC(=O)N1CCC[C@H](NS(C)(=O)=O)[C@@H]1CO[C@H]1CC[C@@H](c2ccccc2)CC1 [Compound A]
[out] 176

====

Assay: Single dose PK in patients with narcolepsy (Cohorts 5, 6 and 7), plasma
Format: in vivo, human
Conditions: human, plasma, iv, 11.2 mg; 6 hr; NT1, single 9 h IV infusion; read-out: Plasma concentration, Median
Excerpt: […]
EXPERIMENTAL_ENDPOINT: concentration at 6 h (ng/mL)
Provide the reading as a plain figure in ng/mL.

[in] Bench note: what concentration at 6 h did `COC(=O)N1CCC[C@H](NS(C)(=O)=O)[C@@H]1CO[C@H]1CC[C@@H](c2ccccc2)CC1` show?
[out] 19.8

====

Experiment: Single dose PK in healthy subjects (Cohorts 1, 2, S1 and S2), plasma
Assay type: in vivo, human
Settings: human, plasma, intravenous, 180 mg; 1 hr; read-out: Plasma concentration, Maximum
EXPERIMENTAL_ENDPOINT: concentration at 1 h (ng/mL)
Please respond with the number in ng/mL and leave the unit unwritten.

[in] Tell me the measured concentration at 1 h of `COC(=O)N1CCC[C@H](NS(C)(=O)=O)[C@@H]1CO[C@H]1CC[C@@H](c2ccccc2)CC1` , please.
[out] 265

====

Assay: Single dose PK in healthy subjects (Cohorts 1, 2, S1 and S2), plasma
Type: in vivo, human
Settings: human, plasma, intravenous, 28 mg; 3 hr; read-out: Plasma concentration, Median
EXPERIMENTAL_ENDPOINT: concentration at 3 h (ng/mL)
Write it as a number; the unit ng/mL goes unstated.

[in] I'd like to know its concentration at 3 h. The molecule in question is COC(=O)N1CCC[C@H](NS(C)(=O)=O)[C@@H]1CO[C@H]1CC[C@@H](c2ccccc2)CC1 [Compound A]
[out] 59.3

====

Assay: Single dose PK in healthy subjects (Cohorts 1, 2, S1 and S2), plasma
Assay type: in vivo, human
Settings: human, plasma, intravenous, 28 mg; 8 hr; read-out: Plasma concentration, Minimum
EXPERIMENTAL_ENDPOINT: concentration at 8 hr (ng/mL)
Write it as a number; the unit ng/mL goes unstated.

[in] Query (molecule): `COC(=O)N1CCC[C@H](NS(C)(=O)=O)[C@@H]1CO[C@H]1CC[C@@H](c2ccccc2)CC1` ; field requested: concentration at 8 hr
[out] 37.1

====

Experiment: Single dose PK in healthy subjects (Cohorts 1, 2, S1 and S2), plasma
Format: in vivo, human
Settings: human, plasma, intravenous, 56 mg; 3 hr; read-out: Plasma concentration, Mean
EXPERIMENTAL_ENDPOINT: concentration at 3 h (µg/mL)
Entry rule: numbers only, all in µg/mL.

[in] Report concentration at 3 h for `COC(=O)N1CCC[C@H](NS(C)(=O)=O)[C@@H]1CO[C@H]1CC[C@@H](c2ccccc2)CC1` please.
[out] 0.114

====

Test: Single dose PK in healthy subjects (Cohorts 1, 2, S1 and S2), plasma
Format: in vivo, human
Conditions: human, plasma, iv, 180 mg, 180 mg single IV infusion, healthy subjects; read-out: AUCinf Geo Mean
EXPERIMENTAL_ENDPOINT: AUC(0-inf) (µg·h/mL)
Give just the numeric value; µg·h/mL need not be written.

[in] Give its AUC(0-inf) value. Item: COC(=O)N1CCC[C@H](NS(C)(=O)=O)[C@@H]1CO[C@H]1CC[C@@H](c2ccccc2)CC1 [Compound A]
[out] 3.01

====

Assay: Single dose PK in healthy subjects (Cohorts 1, 2, S1 and S2), plasma
Format: in vivo, human
Conditions: human, plasma, intravenous, 7 mg; 1 hr After End of Infusion; read-out: Plasma concentration, Q1
Source text: […]
EXPERIMENTAL_ENDPOINT: concentration at 1 h after end of infusion (ng/mL)
# output: bare number, implied unit ng/mL

[in] Tell me the measured concentration at 1 h after end of infusion of COC(=O)N1CCC[C@H](NS(C)(=O)=O)[C@@H]1CO[C@H]1CC[C@@H](c2ccccc2)CC1 [Compound A] , please.
[out] 4.82

====

Experiment: Single dose PK in healthy subjects (Cohorts 1, 2, S1 and S2), plasma
Format: in vivo, human
Conditions: human, plasma, intravenous, 56 mg; 0.5 hr; read-out: Plasma concentration, Mean
EXPERIMENTAL_ENDPOINT: concentration at 0.5 h (ng/mL)
Express it in ng/mL; write the number only.

[in] GET /values?readout=concentration at 0.5 h&item= COC(=O)N1CCC[C@H](NS(C)(=O)=O)[C@@H]1CO[C@H]1CC[C@@H](c2ccccc2)CC1 [Compound A]
[out] 71.2

====

Assay: Single dose PK in patients with narcolepsy (Cohorts 5, 6 and 7), plasma
Assay type: in vivo, human
Details: human, plasma, intravenous, 44.8 mg, Cmpd A 44.8 mg; Geo Mean; Cohort 5, 6, 7
EXPERIMENTAL_ENDPOINT: AUC(0-inf) (ng·h/mL)
Write the answer as a number in ng·h/mL, unit excluded.

[in] Would you kindly share the measured AUC(0-inf) for `COC(=O)N1CCC[C@H](NS(C)(=O)=O)[C@@H]1CO[C@H]1CC[C@@H](c2ccccc2)CC1` ?
[out] 925

====

Assay: Single dose PK in healthy subjects (Cohorts 1, 2, S1 and S2), plasma
Type: in vivo, human
Settings: human, plasma, iv, 7 mg, 7 mg single IV infusion, healthy subjects; read-out: Ceoi Mean
EXPERIMENTAL_ENDPOINT: concentration at 9 h (ng/mL)
Expressed in ng/mL, but write only the number.

[in] For `COC(=O)N1CCC[C@H](NS(C)(=O)=O)[C@@H]1CO[C@H]1CC[C@@H](c2ccccc2)CC1` , what is its reported concentration at 9 h?
[out] 13.5
